Data credit: patent US11547697B2

# Assay system: p110β/p85α (Homo sapiens (Human), UniProt P42338)
# Sequence (P42338 whole entry): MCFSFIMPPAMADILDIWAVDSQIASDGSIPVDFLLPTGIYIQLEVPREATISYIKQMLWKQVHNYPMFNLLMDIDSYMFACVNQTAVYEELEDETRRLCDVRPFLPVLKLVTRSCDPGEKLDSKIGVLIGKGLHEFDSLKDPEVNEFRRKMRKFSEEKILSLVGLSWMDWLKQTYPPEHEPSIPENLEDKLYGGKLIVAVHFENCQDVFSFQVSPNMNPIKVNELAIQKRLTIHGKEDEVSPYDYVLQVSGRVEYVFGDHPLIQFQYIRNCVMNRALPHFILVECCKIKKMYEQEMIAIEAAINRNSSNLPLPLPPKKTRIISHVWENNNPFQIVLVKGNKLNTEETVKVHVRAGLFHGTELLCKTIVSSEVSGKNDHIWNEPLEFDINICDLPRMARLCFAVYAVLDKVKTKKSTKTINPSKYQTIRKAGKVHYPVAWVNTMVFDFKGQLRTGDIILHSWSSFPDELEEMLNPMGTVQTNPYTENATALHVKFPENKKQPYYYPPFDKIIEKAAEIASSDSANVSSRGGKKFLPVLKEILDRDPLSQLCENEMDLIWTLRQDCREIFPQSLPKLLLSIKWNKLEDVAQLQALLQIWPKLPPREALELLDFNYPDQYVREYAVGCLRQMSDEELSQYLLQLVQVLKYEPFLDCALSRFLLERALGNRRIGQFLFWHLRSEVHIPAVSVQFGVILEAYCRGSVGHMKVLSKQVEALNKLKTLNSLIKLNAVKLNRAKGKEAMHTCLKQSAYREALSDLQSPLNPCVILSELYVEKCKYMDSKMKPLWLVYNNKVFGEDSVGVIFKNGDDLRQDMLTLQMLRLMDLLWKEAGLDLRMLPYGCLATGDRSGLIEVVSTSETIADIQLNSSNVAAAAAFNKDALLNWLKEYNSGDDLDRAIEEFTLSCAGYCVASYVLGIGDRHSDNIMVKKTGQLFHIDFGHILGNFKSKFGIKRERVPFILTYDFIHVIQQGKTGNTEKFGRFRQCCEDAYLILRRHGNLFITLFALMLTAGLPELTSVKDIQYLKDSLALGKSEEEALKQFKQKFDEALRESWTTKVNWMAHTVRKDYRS
# Sequence (P27986 whole entry partner): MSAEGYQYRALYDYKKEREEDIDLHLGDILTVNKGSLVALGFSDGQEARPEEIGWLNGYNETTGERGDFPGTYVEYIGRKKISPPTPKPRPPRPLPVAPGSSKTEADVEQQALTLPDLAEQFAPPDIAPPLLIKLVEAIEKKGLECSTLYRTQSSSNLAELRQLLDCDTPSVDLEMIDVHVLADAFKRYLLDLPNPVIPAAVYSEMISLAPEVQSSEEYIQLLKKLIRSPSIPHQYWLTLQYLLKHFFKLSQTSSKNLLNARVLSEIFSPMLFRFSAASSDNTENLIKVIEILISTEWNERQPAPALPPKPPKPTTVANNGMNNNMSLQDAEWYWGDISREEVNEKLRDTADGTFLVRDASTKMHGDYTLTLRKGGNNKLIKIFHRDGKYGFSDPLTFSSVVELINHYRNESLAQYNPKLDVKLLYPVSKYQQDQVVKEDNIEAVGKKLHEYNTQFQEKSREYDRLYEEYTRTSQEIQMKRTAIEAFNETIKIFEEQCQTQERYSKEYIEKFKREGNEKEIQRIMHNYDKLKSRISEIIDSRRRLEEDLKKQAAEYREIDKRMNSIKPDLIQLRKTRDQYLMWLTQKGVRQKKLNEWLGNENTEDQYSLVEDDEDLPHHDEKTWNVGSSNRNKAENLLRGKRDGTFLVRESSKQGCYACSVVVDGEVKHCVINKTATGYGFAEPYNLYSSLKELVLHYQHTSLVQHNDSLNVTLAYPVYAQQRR
# Assay method text: PI 3-Kinase (human) HTRF assay, p110β/p85α
# Format: biochemical
# Settings: read-out: PI3K β In Vitro IC50
Property: IC50

Query :: GET /values?readout=IC50&item= O=C(c1cnc2ccc(-c3cnc4[nH]ncc4c3)cn12)N1CCOCC1 [compound 492]
Result :: < 10 µM

Query :: Next record, please: CN(C(=O)c1cnc2ccc(-c3ccc4oc(N)nc4c3)cn12)C1CCOCC1 [compound 472]
Result :: < 10 µM

Query :: Next record, please: Nc1nc2cc(-c3ccc4nc(N)sc4c3)cc(F)c2o1 [compound 436]
Result :: < 0.1 µM

Query :: Next record, please: O=C(c1cnc2ccc(-c3cnc(Cl)c(NS(=O)(=O)c4ccccc4F)c3)cn12)N1CCOCC1 [compound 452]
Result :: < 1 µM
